- System Name: recombinant human IL-17A (produced in HEK cells, Proteintech HZ-1113) (human, UniProt Q16552 24-155)
- Sequence (Q16552 24-155 limits assumed): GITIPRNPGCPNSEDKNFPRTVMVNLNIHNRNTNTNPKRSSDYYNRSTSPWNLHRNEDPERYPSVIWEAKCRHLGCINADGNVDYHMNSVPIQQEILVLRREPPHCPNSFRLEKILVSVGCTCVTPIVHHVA
- Experimental Details: cell-based or functional assay
Readout Kind: Neutralization potency, ranking from 1 = the best to 4 (HEK-Blue IL-17 reporter cells) (rank)
State just the number; it will be interpreted in rank.

Q) Consider the binder Bm43B02 (VHH, Class A, second generation) VHH: QVQLVESGGGLVQAGGSLNLSCVISRRTPSGYAMGWFRQASGKEREFVAAISWIGGGAVYADSVKGRFTMSRDNAKNTVYLQMNSLKPEDTAVYYCNDMPYGLDTTMDDYDYWGQGTLVTVSS . State its measured Neutralization potency, ranking from 1 = the best to 4 (HEK-Blue IL-17 reporter cells).
A) 2

Q) Consider the binder Bm45G07 (VHH, Class D, second generation) VHH: QVQLVESGGGFVQAGGSLKLSCSVSGNTFITNHMGWFRQPPGKGREFVAGIRWSDGSTFYGDSVRGRFTISGDNAKHTLYLQMNSLKPDDTAVYYCYIDSGSDRYYGQGTLVTVSS . State its measured Neutralization potency, ranking from 1 = the best to 4 (HEK-Blue IL-17 reporter cells).
A) 1

Q) Consider the binder VHH664 (VHH, Control VHH of Ablynx, disclosed in WO2012156219) VHH: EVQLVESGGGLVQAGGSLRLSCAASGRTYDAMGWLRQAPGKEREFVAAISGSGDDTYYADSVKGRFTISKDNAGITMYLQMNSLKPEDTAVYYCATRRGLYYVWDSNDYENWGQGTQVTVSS . State its measured Neutralization potency, ranking from 1 = the best to 4 (HEK-Blue IL-17 reporter cells).
A) 2

Q) Consider the binder Re42F08 (VHH, Class B, first generation) VHH: QVQLVESGGGLVKAGGSLRLSCVVSGHTSEISAMGWYRQAPGKQRELVALITSRSGDTHYSDSVKGRFSISRDNAKNTMYLQMNSLNPDDTAVYYCVHNEPGHLYMAQGTQVTVSS . State its measured Neutralization potency, ranking from 1 = the best to 4 (HEK-Blue IL-17 reporter cells).
A) 2

Q) Consider the binder Bm44G07 (VHH, Class B, second generation) VHH: QVQLVQSGGGLVQTGGSLRLSCSVSGDISSQSAMGWYRQVPGRQRELVAMIHTTKGDTYYADSVKDRFTISRINANNTIHLQMNNLKPEDTAIYYCTHNEPGDLYMGQGTQVTVSS . State its measured Neutralization potency, ranking from 1 = the best to 4 (HEK-Blue IL-17 reporter cells).
A) 3

Q) Consider the binder Bm42A09 (VHH, Class B, second generation) VHH: QVQLVESGGGLVRTGGSLRLSCSVSGDISSQSAMGWYRQVPGRQRELVAMIHTTKGDTYYADSVKGRFTISRINANNTIYLQMNNLKPEDTAIYYCTHNEPGDLYMGQGTLVTVSS . State its measured Neutralization potency, ranking from 1 = the best to 4 (HEK-Blue IL-17 reporter cells).
A) 2

Q) Consider the binder Bm44B04 (VHH, Class B, second generation) VHH: QVQLVESGGGLVRTGGSLRLSCSVSGDISSQSAMGWYRQVPGRQRELVAMIHTTKGDTYYADSVKGRFTISRINANNTIYLQMNNLKPEDTAIYYCTHNEPGDLYMGQGTQVTVSS . State its measured Neutralization potency, ranking from 1 = the best to 4 (HEK-Blue IL-17 reporter cells).
A) 2

Q) Consider the binder Bm42A03 (VHH, Class C, second generation) VHH: QVQLVESGGGLVQPGGSLRLSCVASGFTFSSFAMSWYRQDPGKERKLVAAITNDGGTTFYSDLVKGRFTISRDNTKNTVYLQMNNVKPDDAAVYYCMAVRGLYGSNWYDYPFELWGQGTQVTVSS . State its measured Neutralization potency, ranking from 1 = the best to 4 (HEK-Blue IL-17 reporter cells).
A) 1
